Attribution: ChEMBL document CHEMBL1140372

- Target Of Assay: Sodium-dependent serotonin transporter (Rattus norvegicus, UniProt P31652)
- Sequence (P31652 whole entry): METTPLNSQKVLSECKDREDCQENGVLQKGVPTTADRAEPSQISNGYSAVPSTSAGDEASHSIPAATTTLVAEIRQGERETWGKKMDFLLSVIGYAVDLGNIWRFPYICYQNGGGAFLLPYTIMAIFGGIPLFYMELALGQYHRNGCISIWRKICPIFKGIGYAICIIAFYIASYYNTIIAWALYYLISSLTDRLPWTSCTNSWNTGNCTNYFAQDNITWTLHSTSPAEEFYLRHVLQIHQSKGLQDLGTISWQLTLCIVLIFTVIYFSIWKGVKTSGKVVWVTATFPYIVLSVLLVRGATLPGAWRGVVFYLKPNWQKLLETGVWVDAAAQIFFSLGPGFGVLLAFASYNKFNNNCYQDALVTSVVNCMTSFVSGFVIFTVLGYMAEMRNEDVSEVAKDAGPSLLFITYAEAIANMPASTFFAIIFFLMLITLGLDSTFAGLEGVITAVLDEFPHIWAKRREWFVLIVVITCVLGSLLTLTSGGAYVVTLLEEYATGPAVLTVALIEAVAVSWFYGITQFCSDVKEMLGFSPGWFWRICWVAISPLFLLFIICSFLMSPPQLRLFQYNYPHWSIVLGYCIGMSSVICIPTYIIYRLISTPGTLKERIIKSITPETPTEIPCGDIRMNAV
- Experimental Protocol: In vitro inhibitory constant against [3H]paroxetine binding to rat frontal cortex membrane serotonin reuptake site
Readout: Ki (nM)

P. Clc1ccc2[nH]cc(CCCN3CCN(c4cccc5c4OCCO5)CC3)c2c1
Q. C[C@H]1Oc2c(cccc2N2CCN(CCCc3c[nH]c4c(F)cccc34)CC2)NC1=O
R. c1cc2c(c(N3CCN(CCCCc4c[nH]c5ccccc45)CC3)c1)OCCO2
Order the above compounds by increasing Ki. // rank by listing labels in the order requested
P, Q, R

----------
- Target Of Assay: Sodium-dependent serotonin transporter (Mus musculus) (UniProt Q60857)
- Sequence (Q60857 whole entry): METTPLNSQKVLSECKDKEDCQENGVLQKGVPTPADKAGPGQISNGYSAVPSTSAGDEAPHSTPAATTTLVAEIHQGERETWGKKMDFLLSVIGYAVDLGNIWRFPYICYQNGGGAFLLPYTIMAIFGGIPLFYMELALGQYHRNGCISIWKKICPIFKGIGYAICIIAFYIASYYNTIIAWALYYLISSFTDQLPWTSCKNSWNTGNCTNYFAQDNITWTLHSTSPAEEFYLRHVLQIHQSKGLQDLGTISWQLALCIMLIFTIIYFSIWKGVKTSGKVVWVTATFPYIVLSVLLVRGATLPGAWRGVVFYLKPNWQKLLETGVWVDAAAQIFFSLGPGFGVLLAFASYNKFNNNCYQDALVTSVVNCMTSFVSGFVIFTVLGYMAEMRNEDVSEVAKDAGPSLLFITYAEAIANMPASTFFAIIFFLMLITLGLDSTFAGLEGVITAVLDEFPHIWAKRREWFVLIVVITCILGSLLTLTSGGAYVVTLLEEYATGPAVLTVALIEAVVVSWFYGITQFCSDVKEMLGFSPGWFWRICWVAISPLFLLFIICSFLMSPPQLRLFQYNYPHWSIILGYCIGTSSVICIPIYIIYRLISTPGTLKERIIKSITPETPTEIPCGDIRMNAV
- Experimental Protocol: Effective dose against potentiation of 5-HTP induced serotonin syndrome in mice upon oral administration (Serotonin reuptake inhibitory activity)
- Assay type: functional, organism-based
Readout: ED50

Answered cases to consult:
c1cc2c(c(N3CCN(CCCCc4c[nH]c5ccccc45)CC3)c1)OCCO2 :: > 30 mg/kg
C[C@@H]1Oc2c(cccc2N2CCN(CCCc3c[nH]c4ccccc34)CC2)NC1=O :: > 10 mg/kg

Now turn to the next molecule.
Quick check: ED50 on Sodium-dependent serotonin transporter (Mus musculus) (UniProt Q60857), item CC1CNc2cccc(N3CCN(CCCc4c[nH]c5ccccc45)CC3)c2C1 (stereo not drawn) ?
> 100 mg/kg
